Data provenance: paper PMC6445164

# Target Under Test: hCA VII (Homo sapiens)
# Sequence (P43166 whole entry): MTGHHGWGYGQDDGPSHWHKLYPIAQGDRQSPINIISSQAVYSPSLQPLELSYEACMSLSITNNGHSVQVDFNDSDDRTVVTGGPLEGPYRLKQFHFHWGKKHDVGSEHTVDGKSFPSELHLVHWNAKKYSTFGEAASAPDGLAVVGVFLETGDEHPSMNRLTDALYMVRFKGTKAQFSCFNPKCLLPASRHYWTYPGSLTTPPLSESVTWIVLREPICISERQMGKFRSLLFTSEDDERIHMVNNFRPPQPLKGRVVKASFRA
# Experimental Details: stopped-flow CA catalysed CO2 hydration assay, hCA VII
Measurement Name: pKi
Interpret pKi as the negative base-10 log of the concentration measured in mol/L.

Q) API: value(readout= pKi, system= hCA VII (Homo sapiens), query= `NS(=O)(=O)c1ccc(-n2cccn2)cc1Cl` )
A) 6.48

Q) Another compound to check: `Cc1ccc(-n2cc(S(N)(=O)=O)cn2)cc1S(N)(=O)=O`
A) 7.17

Q) Follow-up entry: `Cc1cc(-n2nc(C)c(S(N)(=O)=O)c2C)ccc1S(N)(=O)=O`
A) 7.72

Q) How about `Cc1cccc(-n2nc(C)c(S(N)(=O)=O)c2C)c1` ?
A) 6.03

Q) Then what about the compound NS(=O)(=O)c1ccc(-n2cccn2)cc1 [Compound 7a, 4-(^1H-pyrazol-1-yl)benzenesulfonamide] ?
A) 6.10

Q) Try this compound too: `NS(=O)(=O)c1ccc(Cl)c(-n2cc(S(N)(=O)=O)cn2)c1`
A) 6.22
